Experiment: pKA value in aqueous solution
Conditions: buffer

{"Molecule": "Nc1ccccn1 [2-AMINOPYRIDINE]", "pKA": 7.6}

====

# pKa values compiled below
Assay: pKA value in aqueous solution
Conditions: aqueous solution
Property measured: pKa

{"Compound": "COC(=O)CN", "Test result": 7.73}
{"Compound": "NCc1ccccn1", "Test result": 8.62}
{"Compound": "NCCc1ccccc1 [PHENETHYLAMINE]", "Test result": 9.08}
{"Compound": "COC(=O)C(N)CCCCNC(=O)OC(C)(C)C (configuration not stated)", "Test result": 8.9}
{"Compound": "COC(=O)C(CCCCN)NC(=O)OC(C)(C)C (configuration not stated)", "Test result": 10.8}
{"Compound": "CN(C)c1ccc(N)cc1", "Test result": 6.71}
{"Compound": "NCCc1ccccn1", "Test result": 9.52}
